# key: entry, value: IC50
Test system: SMN2 mRNA
Assay: RT-qPCR splicing assay panel, SMN2 canonical junction (CJ) mRNA
Type: cell-based, human
Settings: Homo sapiens, canonical junction (CJ) mRNA, RT-qPCR panel, Table 4A; read-out: SMN2, decrease in CJ mRNA levels, IC50

COc1cc(-c2ccc(-c3ccc(N4CC[C@@](C)(NCC5CC5)C4)nn3)c(O)c2)ncn1; < 100 nM

Task item: Look up and state reported IC50 for "COc1cc(-c2ccc(-c3cc(C#N)c(OC4CC(C)(C)NC(C)(C)C4)nn3)c(O)c2)ncn1"
Reply: 100 to 1000 nM

Task item: Look up and state reported IC50 for COc1cc(-c2cc(O)c(-c3ccc(N4CCC(NCC5CC5)C4)nn3)cc2F)ncn1 (stereo not drawn)
Reply: 1000 to 10000 nM

Task item: Look up and state reported IC50 for "Oc1cc(-c2cn[nH]c2)c(F)cc1-c1ccc(N2CC[C@@H](NC3CC3)C2)nn1"
Reply: < 100 nM

Task item: Look up and state reported IC50 for Cc1ncc(-c2ccc(-c3ccc(N4CC[C@](C)(NCC5CC5)C4)nn3)c(O)c2)s1 (single isomer, unassigned)
Reply: < 100 nM

Task item: Look up and state reported IC50 for "Cc1nnc(-c2cc(O)c(-c3ccc(N4CC[C@@H](NCC5CC5)C4)nn3)cc2F)s1"
Reply: 100 to 1000 nM

Task item: Look up and state reported IC50 for COc1cc(-c2ccc(-c3ccc(N4CC(F)[C@@H](NC(C)(C)C)C4)nn3)c(O)c2)cnn1 (stereo in doubt)
Reply: < 100 nM

Task item: Look up and state reported IC50 for Oc1cc(-c2cn[nH]c2)ccc1-c1ccc(N2CCC(NC3(CF)CC3)C2)nn1 (stereo not drawn)
Reply: < 100 nM

###

System: HTT mRNA
Assay: RT-qPCR splicing assay, HTT canonical (CJ) and alternative (AJ) junction mRNA
Format: cell-based, human
Details: Homo sapiens, 24 h, Table 3A; A673 or K562 cells, 24 h treatment; read-out: HTT CJ (IC50, decrease in CJ mRNA)
pIC50: −log10 of the molar value.
readoutName: pIC50

Cc1cn2nc(-c3ccc(-c4ccc(N5CCC(NC6CCC6)C5)nn4)c(O)c3)cc(C)c2n1 (centres unmarked); > 7.00
COc1nc(-c2ccc(N3CC[C@@H](NC(C)(C)C)C3)nn2)ccc1-c1cnc(C)s1; > 7.00
Oc1cc(-c2cn[nH]c2)ccc1-c1ccc(N2CC[C@@H](NC3CCC3)C2)nn1; > 7.00
Cn1cc2cc(-c3ccc(-c4ccc(N5CCC(NC6CCC6)C5)nn4)c(O)c3)ncc2n1 (centres unmarked); 6.00 to 7.00
Oc1cc(-c2cn[nH]c2)ccc1-c1ccc(N2CCC(NCC3CC3)C2)nn1 (centres unmarked); > 7.00
COc1cc(-c2ccc(-c3ccc(N4CC[C@@](C)(NCC5CC5)C4)nn3)c(O)c2)ncn1; > 7.00
CC(C)(C)N[C@H]1CCN(c2ccc(-c3ccc(-c4cn[nH]c4)cc3O)nn2)C1 [Compound 261]; > 7.00

Switching to the query record.
Task item: For HTT mRNA, give pIC50 of the listed molecule: "Cc1ccc(-c2cc(O)c(-c3ccc(N4CC[C@H](NC5CCC5)C4)nn3)cc2F)cn1"
Reply: 6.00 to 7.00

###

System: HTT mRNA
Test: RT-qPCR splicing assay, HTT canonical (CJ) and alternative (AJ) junction mRNA
Assay type: cell-based, human
Conditions: Homo sapiens, 24 h, Table 3A; A673 or K562 cells, 24 h treatment; read-out: HTT CJ (IC50, decrease in CJ mRNA)
pIC50: −log10 of the molar value.
readoutName: pIC50

Cc1ncc(-c2cc(O)c(-c3ccc(N4CC[C@@](C)(NCC5CC5)C4)nn3)cc2F)s1 (single isomer, unassigned); > 7.00
COc1cc(-c2ccc(-c3nnc(N4CC[C@H](NC5CCC5)C4)cc3C)c(O)c2)cnn1; 5.00 to 6.00
CC(C)(C)N[C@@H]1CCN(c2ccc(-c3ccc(-c4cn[nH]c4)cc3O)nn2)C1; > 7.00
COc1cc(-c2ccc(-c3ccc(N4CC[C@@H](N(CCF)C5CCC5)C4)nn3)c(O)c2)cnn1; 6.00 to 7.00
COc1cc(-c2cc(O)c(-c3ccc(N4CC[C@@H](NC5(C)CCC5)C4)nn3)cc2F)cnn1; > 7.00
Oc1cc(-c2cn[nH]c2)c(F)cc1-c1ccc(N2CCC(NC3CC3)C2)nn1 (stereo in doubt); > 7.00
Oc1cc(-c2cn[nH]c2)ccc1-c1ccc(N2CC[C@H](NC3CC3)C2)nn1; > 7.00
Oc1cc(-c2cn[nH]c2)c(F)cc1-c1ccc(N2CC[C@@H](NC3CCC3)C2)nn1; > 7.00

Task item: Look up and state reported pIC50 for Oc1cc(-c2cnc(C(F)F)s2)c(F)cc1-c1ccc(N2CCC(NC3CCC3)C2)nn1 (stereo not drawn)
Reply: 6.00 to 7.00

Task item: Look up and state reported pIC50 for "Cc1nc(C#N)c(-c2cc(O)c(-c3ccc(N4CC[C@@H](NC5CCC5)C4)nn3)cc2F)s1"
Reply: 6.00 to 7.00

###

Test system: HTT mRNA
Test: RT-qPCR splicing assay, HTT canonical (CJ) and alternative (AJ) junction mRNA
Format: cell-based, human
Conditions: Homo sapiens, 24 h, Table 3A; A673 or K562 cells, 24 h treatment; read-out: HTT CJ (IC50, decrease in CJ mRNA)
# key: entry, value: IC50

Cc1ncc(-c2cc(O)c(-c3ccc(N4CC[C@@H](N(C)C(C)(C)C)C4)nn3)cc2F)s1; < 100 nM
Oc1cc(-c2cnnc(C3CC3)c2)ccc1-c1ccc(N2CC[C@@H](NC3CCC3)C2)nn1; 1000 to 10000 nM

Task item: Look up and state reported IC50 for Oc1cc(-c2cn[nH]c2)ccc1-c1ccc(N2CCC(NC3(C(F)(F)F)CC3)C2)nn1 (stereo not shown)
Reply: > 10000 nM

Task item: Look up and state reported IC50 for Oc1cc(-c2cn[nH]c2)ccc1-c1ccc(N2CCC(NC3(C(F)F)CC3)C2)nn1 (stereo not shown)
Reply: 1000 to 10000 nM

Task item: Look up and state reported IC50 for Cc1cn2cc(-c3ccc(-c4ccc(N5CCC(NC6CCC6)C5)nn4)c(O)c3)ncc2n1 (stereo not shown)
Reply: 100 to 1000 nM

###

Test system: SMN2 mRNA
Assay: RT-qPCR splicing assay panel, SMN2 canonical junction (CJ) mRNA
Assay type: cell-based, human
Details: Homo sapiens, canonical junction (CJ) mRNA, RT-qPCR panel, Table 4A; read-out: SMN2, decrease in CJ mRNA levels, IC50
pIC50: −log10 of the molar value. Structures can show the parent of a compound that is named as a salt.
readoutName: pIC50

As a guide, the following entries are already answered.
Cc1nc(C)c(-c2cc(O)c(-c3ccc(N4CC[C@@H](NC5CCC5)C4)nn3)cc2F)s1; 6.00 to 7.00
CC(C)(C)NC1CCN(c2ccc(-c3ccc(-n4cccn4)c(O)c3)nn2)C1 (stereo not drawn) [Compound 109, trifluoroacetate]; 5.00 to 6.00
Cc1ncc(-c2ccc(-c3ccc(N4CC[C@](C)(NC5CCC5)C4)nn3)c(O)c2)s1; > 7.00
CC(=O)c1cc(-c2ccc(-c3ccc(N4CCC(NC5CCC5)C4)nn3)c(O)c2)cnn1 (stereo not drawn); < 5.00
O=c1cc(-c2cc(O)c(-c3ccc(N4CC[C@H](NC5CCC5)C4)nn3)cc2F)cc[nH]1; > 7.00

Task item: Look up and state reported pIC50 for "CN(C1CCC1)[C@H]1CCN(c2ccc(-c3cc(F)c(-c4cn[nH]c4)cc3O)nn2)C1"
Reply: > 7.00

Task item: Look up and state reported pIC50 for "Cc1ccc(-c2ccc(-c3ccc(N4CC[C@@H](NC5CCC5)C4)nn3)c(O)c2)cn1"
Reply: > 7.00

Task item: Look up and state reported pIC50 for "COc1cc(-c2ccc(-c3ccc(N4CC[C@@H](NCC5CC5)C4)nn3)c(O)c2)ncn1"
Reply: > 7.00

###

System: Target C mRNA
Assay: RT-qPCR splicing assay panel, Target C canonical junction (CJ) mRNA
Type: cell-based, human
Settings: canonical junction (CJ) mRNA, RT-qPCR panel, Table 4A; read-out: Target C, decrease in CJ mRNA levels, IC50
readoutName: IC50

As a guide, the following entries are already answered.
COc1cc(-c2ccc(-c3ccc(N4CC[C@H](NC5(C)CC5)C4)nn3)c(O)c2)cnn1; < 100 nM
Cc1nc(-c2ccc(-c3ccc(N4CCC(NC5CCC5)C4)nn3)c(O)c2)cs1 (stereo not drawn); > 10000 nM
COc1cc(-c2ccc(-c3ccc(N4CC[C@@H](NC5(C)CC5)C4)nn3)c(O)c2)cnn1; 100 to 1000 nM
Oc1cc(-c2cn[nH]c2)ccc1-c1ccc(N2CCC(NC3CC3)C2)nn1 (stereo not drawn) [Compound 102]; > 10000 nM

Task item: Look up and state reported IC50 for Oc1cc(-c2cn[nH]c2)ccc1-c1ccc(N2CCC(NC3CC3)C2)nn1 (stereo not drawn) [Compound 100]
Reply: < 100 nM

Task item: Look up and state reported IC50 for "CN([C@@H]1CCN(c2ccc(-c3ccc(-c4cn[nH]c4)cc3O)nn2)C1)C(C)(C)C"
Reply: < 100 nM
